Assayed Target: VEGF receptor tyrosine kinase-2 (Homo sapiens, UniProt P35968)
Construct: GST; made in house; host or cells: baculovirus-infected insect cells (Sf9)
Sequence (P35968 20-1356): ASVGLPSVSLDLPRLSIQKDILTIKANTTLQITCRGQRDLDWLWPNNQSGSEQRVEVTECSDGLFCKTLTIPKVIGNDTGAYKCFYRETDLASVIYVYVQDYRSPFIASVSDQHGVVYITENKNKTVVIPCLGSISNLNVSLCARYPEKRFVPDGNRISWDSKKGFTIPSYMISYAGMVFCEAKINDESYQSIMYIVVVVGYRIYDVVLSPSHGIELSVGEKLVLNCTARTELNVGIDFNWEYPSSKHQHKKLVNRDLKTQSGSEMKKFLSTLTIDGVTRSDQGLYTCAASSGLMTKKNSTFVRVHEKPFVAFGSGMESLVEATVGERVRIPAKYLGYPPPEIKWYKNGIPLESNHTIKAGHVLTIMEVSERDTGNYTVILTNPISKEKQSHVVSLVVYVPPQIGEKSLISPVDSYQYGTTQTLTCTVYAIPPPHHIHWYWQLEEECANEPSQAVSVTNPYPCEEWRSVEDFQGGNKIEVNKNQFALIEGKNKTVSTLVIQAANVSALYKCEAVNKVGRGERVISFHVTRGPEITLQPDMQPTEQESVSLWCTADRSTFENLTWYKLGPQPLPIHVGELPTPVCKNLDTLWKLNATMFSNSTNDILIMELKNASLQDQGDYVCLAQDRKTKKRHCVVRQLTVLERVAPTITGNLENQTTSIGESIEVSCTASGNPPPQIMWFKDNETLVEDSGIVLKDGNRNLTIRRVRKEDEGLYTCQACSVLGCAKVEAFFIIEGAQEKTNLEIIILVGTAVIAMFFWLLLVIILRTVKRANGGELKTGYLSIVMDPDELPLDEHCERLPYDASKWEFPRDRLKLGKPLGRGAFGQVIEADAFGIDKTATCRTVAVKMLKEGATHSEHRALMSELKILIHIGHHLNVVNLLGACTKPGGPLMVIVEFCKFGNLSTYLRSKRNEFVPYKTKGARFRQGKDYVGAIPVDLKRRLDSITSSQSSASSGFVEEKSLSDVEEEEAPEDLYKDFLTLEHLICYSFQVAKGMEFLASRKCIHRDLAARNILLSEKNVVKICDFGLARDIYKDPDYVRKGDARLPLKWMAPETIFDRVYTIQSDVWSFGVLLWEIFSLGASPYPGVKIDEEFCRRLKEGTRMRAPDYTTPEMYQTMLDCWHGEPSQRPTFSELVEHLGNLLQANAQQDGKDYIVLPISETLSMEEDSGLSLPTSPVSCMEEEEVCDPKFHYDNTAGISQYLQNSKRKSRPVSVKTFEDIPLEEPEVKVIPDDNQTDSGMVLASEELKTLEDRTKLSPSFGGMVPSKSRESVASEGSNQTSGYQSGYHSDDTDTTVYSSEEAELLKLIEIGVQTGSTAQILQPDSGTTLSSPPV
Assay Overview: VEGF Receptor-2 Kinase Assay
Assay type: biochemical
Details: poly-(Glu4Tyr) substrate, 33P-ATP, 10 minutes at 22° C.; read-out: VEGF-R2 IC50
Assay Metric: IC50 (µM)

Below, each entry is followed by its recorded IC50 result.
Please give measured IC50 of the following entry: Cc1cc(Nc2ncc(Br)c(N[C@H](C)[C@@H](C)O)n2)ccc1S(C)(=N)=O (mixture of isomers)
0.039

Please give measured IC50 of the following entry: CCS(=N)(=O)c1ccc(Nc2ncc(Br)c(N[C@H](C)[C@@H](C)O)n2)cc1 (mixture of isomers)
0.026

Please give measured IC50 of the following entry: CCC(C)Sc1nc(Nc2ccc(S(C)(=N)=O)cc2)ncc1Br (racemic)
0.12

Please give measured IC50 of the following entry: CC(O)C(C)Sc1nc(Nc2ccc(S(C)(=N)=O)cc2)ncc1Br (racemic)
0.15

(A) COc1cc(Nc2ncc(Br)c(O[C@H](C)[C@@H](C)O)n2)ccc1S(C)(=N)=O (mixture of isomers)
(B) C[C@H](CO)Nc1nc(Nc2ccc(S(C)(=N)=O)cc2)ncc1Br (mixture of isomers)
Among A and B , whose measured IC50 is the smaller figure? // return label of chosen record
B

* * *

Assayed Target: CDK2/CycE (Homo sapiens, UniProt P24941)
Construct: GST
Assay Overview: CDK2/CycE Kinase Assay
Details: histone IIIS substrate, 33P-ATP, 15 minutes at 22° C.
Assay Metric: IC50 (nM)

Please give measured IC50 of the following entry: CCOC(=O)N=S(=O)(CC)c1ccc(Nc2ncc(Br)c(N[C@H](C)C(C)(C)O)n2)cc1 (mixture of isomers) [Example 1.35]
42

Please give measured IC50 of the following entry: C[C@@H](Nc1nc(Nc2ccc(S(=N)(=O)C3CCCC3)cc2)ncc1Br)C(C)(C)O (mixture of isomers) [Example 1.11]
25

(1) CCOC(=O)N=S(=O)(CC)c1ccc(Nc2ncc(Br)c(O[C@H](C)[C@@H](C)O)n2)cc1 (mixture of isomers) [Example 1.39]
(2) C[C@@H](Nc1nc(Nc2ccc(S(=N)(=O)C3CC3)cc2)ncc1Br)C(C)(C)O (mixture of isomers) [Example 1.6]
Among 1 and 2 , whose measured IC50 is the smaller figure? // return label of chosen record
2

* * *

Structures can show the parent of a compound that is named as a salt.
Recorded melting point for the following compounds

Below, each entry is followed by its recorded melting point result.
Please give measured melting point of the following entry: CCC(Sc1nc(Nc2ccc(S(C)(=N)=O)cc2)ncc1Br)C(C)(C)O (racemic)
218 °C (dec.)

Please give measured melting point of the following entry: CCC(Sc1nc(Nc2ccc(S(C)(=N)=O)cc2)ncc1Br)C(C)=O (racemic) (as salt: sodium)
192 to 194 °C

Please give measured melting point of the following entry: C[C@@H](Nc1nc(Nc2ccc(S(=O)(=NS(=O)(=O)CC[Si](C)(C)C)C3CCCC3)cc2)ncc1Br)C(C)(C)O (mixture of isomers)
200 to 201 °C

***
Please give measured melting point of the following entry: C[C@@H](Nc1nc(Nc2ccc(S(=N)(=O)C3CCCC3)cc2)ncc1Br)C(C)(C)O (mixture of isomers)
194 to 196 °C

* * *

Assayed Target: Human Carboanhydrase-2 (Homo sapiens, UniProt P00918)
pIC50: −log10 of the molar value.
Assay Metric: pIC50

Please look at CC(C)Nc1nc(Nc2ccc(S(C)(=N)=O)cc2)ncc1Br (racemic) and tell me its recorded pIC50 on Human Carboanhydrase-2 (Homo sapiens, UniProt P00918).
< 5.00

* * *

Assayed Target: CDK1/CycB (Homo sapiens, UniProt P06493)
Construct: GST
Sequence (P06493 whole entry): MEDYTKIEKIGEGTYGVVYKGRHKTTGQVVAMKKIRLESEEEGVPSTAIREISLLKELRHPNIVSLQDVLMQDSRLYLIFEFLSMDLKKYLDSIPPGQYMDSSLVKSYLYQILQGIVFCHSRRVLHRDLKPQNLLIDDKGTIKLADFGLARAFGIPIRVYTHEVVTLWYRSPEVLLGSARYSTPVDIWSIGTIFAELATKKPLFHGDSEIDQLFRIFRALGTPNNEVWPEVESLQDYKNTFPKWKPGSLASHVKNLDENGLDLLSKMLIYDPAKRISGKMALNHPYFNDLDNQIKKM
Sequence (P14635 whole entry partner): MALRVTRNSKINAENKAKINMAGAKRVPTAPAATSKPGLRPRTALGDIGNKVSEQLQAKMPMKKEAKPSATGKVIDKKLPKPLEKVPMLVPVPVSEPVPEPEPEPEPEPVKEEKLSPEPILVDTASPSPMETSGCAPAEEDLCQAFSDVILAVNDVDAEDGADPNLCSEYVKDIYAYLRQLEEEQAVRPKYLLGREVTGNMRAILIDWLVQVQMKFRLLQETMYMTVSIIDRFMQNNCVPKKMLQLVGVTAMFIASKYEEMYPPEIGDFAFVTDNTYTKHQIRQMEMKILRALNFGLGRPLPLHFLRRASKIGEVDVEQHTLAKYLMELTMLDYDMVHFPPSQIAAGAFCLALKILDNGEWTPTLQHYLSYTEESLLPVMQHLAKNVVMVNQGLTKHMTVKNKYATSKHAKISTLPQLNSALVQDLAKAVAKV
Assay Overview: CDK1/CycB Kinase Assay
Details: histone IIIS substrate, 33P-ATP, 15 minutes at 22° C.
pIC50: −log10 of the molar value.
Assay Metric: pIC50

Below, each entry is followed by its recorded pIC50 result.
Please give measured pIC50 of the following entry: C[C@@H](Nc1nc(Nc2ccc(S(=N)(=O)CC3CC3)cc2)ncc1Br)C(C)(C)O (mixture of isomers)
8.30

Please give measured pIC50 of the following entry: Cc1cc(Nc2ncc(Br)c(N[C@H](C)[C@@H](C)O)n2)ccc1S(C)(=N)=O (mixture of isomers)
8.40

Please give measured pIC50 of the following entry: C[C@@H](Nc1nc(Nc2ccc(S(=N)(=O)CCO)cc2)ncc1Br)C(C)(C)O (single isomer, unassigned)
8.15

(P) CCOc1nc(Nc2ccc(S(=N)(=O)CC)cc2)ncc1Br (racemic)
(Q) COc1cc(Nc2ncc(Br)c(O[C@H](C)[C@@H](C)O)n2)ccc1S(C)(=N)=O (mixture of isomers)
(R) CN=S(C)(=O)c1ccc(Nc2ncc(Br)c(N[C@H](C)[C@@H](C)O)n2)cc1 (mixture of isomers) [Example 1.30]
Sort entries by pIC50 from minimum to maximum value. Reply with the labels, ordered as the question asks.
P, R, Q
(P: 6.70, R: 7.82, Q: 8.30)

* * *

Assayed Target: VEGF receptor tyrosine kinase-2 (Homo sapiens)
Construct: GST; made in house; host or cells: baculovirus-infected insect cells (Sf9)
Assay Overview: VEGF Receptor-2 Kinase Assay
Format: biochemical
Details: VEGF-R2 IC50, poly-(Glu4Tyr) substrate, 33P-ATP, 10 minutes at 22° C.
Assay Metric: IC50 (nM)
Numeric answer only, unit nM assumed.

Please give measured IC50 of the following entry: C[C@H](CO)Nc1nc(Nc2ccc(S(=O)(CC3CC3)=NS(=O)(=O)CC[Si](C)(C)C)cc2)ncc1Br (mixture of isomers) [Example 1.7]
240

* * *

Assayed Target: CDK2/CycE (Homo sapiens)
Construct: GST
Assay Overview: CDK2/CycE Kinase Assay
Details: histone IIIS substrate, 33P-ATP, 15 minutes at 22° C.
Assay Metric: IC50 (nM)

Below, each entry is followed by its recorded IC50 result.
Please give measured IC50 of the following entry: C[C@@H](O)[C@@H](C)Oc1nc(Nc2ccc(S(=O)(CCO)=NS(=O)(=O)CC[Si](C)(C)C)cc2)ncc1Br (mixture of isomers)
54

Please give measured IC50 of the following entry: C[C@H](CO)Nc1nc(Nc2ccc(S(C)(=O)=NS(=O)(=O)CC[Si](C)(C)C)cc2)ncc1Br (mixture of isomers)
390

(1) C[C@@H](O)[C@@H](C)Nc1nc(Nc2ccc(S(=O)(CCO)=NS(=O)(=O)CC[Si](C)(C)C)cc2)ncc1Br (mixture of isomers)
(2) CCOc1nc(Nc2ccc(S(=N)(=O)CC)cc2)ncc1Br (racemic)
Among 1 and 2 , whose measured IC50 is the smaller figure? // return label of chosen record
2

* * *

Assayed Target: VEGF receptor tyrosine kinase-2 (Homo sapiens, UniProt P35968)
Construct: GST; made in house; host or cells: baculovirus-infected insect cells (Sf9)
Assay Overview: VEGF Receptor-2 Kinase Assay
Format: biochemical
Details: poly-(Glu4Tyr) substrate, 33P-ATP, 10 minutes at 22° C.; read-out: VEGF-R2 IC50
Assay Metric: IC50 (nM)

(a) CCOC(=O)N=S(C)(=O)c1ccc(Nc2ncc(Br)c(N[C@H](C)C(C)(C)O)n2)cc1C (mixture of isomers) [Example 1.37]
(b) C[C@@H](O)[C@@H](C)Oc1nc(Nc2ccc(S(C)(=N)=O)cc2)ncc1Br (mixture of isomers) [Example 1.4]
(c) CCOc1nc(Nc2ccc(S(=N)(=O)CC)cc2)ncc1Br (racemic) [Example 1.63]
(d) CCOC(=O)N=S(C)(=O)c1ccc(Nc2ncc(Br)c(N[C@H](COC)[C@@H](C)O)n2)cc1 (mixture of isomers) [Example 1.34]
(e) CCS(=N)(=O)c1ccc(Nc2ncc(Br)c(N[C@H](COC)[C@@H](C)O)n2)cc1 (mixture of isomers) [Example 1.50]
Sort ascending by IC50: all records listed above. Reply with the labels, ordered as the question asks.
a, c, e, b, d

(I) C[C@@H](Nc1nc(Nc2ccc(S(=N)(=O)CC3CC3)cc2)ncc1Br)C(C)(C)O (mixture of isomers) [Example 1.9]
(II) CCS(=N)(=O)c1ccc(Nc2ncc(Br)c(N[C@H](COC)[C@@H](C)O)n2)cc1 (mixture of isomers) [Example 1.48]
Among I and II , whose measured IC50 is the smaller figure? // return label of chosen record
I
(I: 49 nM, II: 270 nM)

* * *

Test system: DU 145, hormone-independent human prostate cancer cells
Assay Overview: Proliferation assay, DU145
Type: cell-based
Details: DU-145, 96 h, 4 days incubation, crystal violet
pIC50: −log10 of the molar value.
Assay Metric: pIC50

Below, each entry is followed by its recorded pIC50 result.
Please look at C[C@H](CO)Nc1nc(Nc2ccc(S(C)(=N)=O)cc2)ncc1Br (mixture of isomers) and tell me its recorded pIC50 on DU 145, hormone-independent human prostate cancer cells.
5.82

Please look at C[C@@H](O)[C@@H](C)Oc1nc(Nc2ccc(S(=O)(CCO)=NS(=O)(=O)CC[Si](C)(C)C)cc2)ncc1Br (mixture of isomers) and tell me its recorded pIC50 on DU 145, hormone-independent human prostate cancer cells.
6.40

(a) CCC(Sc1nc(Nc2ccc(S(C)(=N)=O)cc2)ncc1Br)C(C)O (racemic)
(b) CCOC(=O)N=S(C)(=O)c1ccc(Nc2ncc(Br)c(N[C@H](C)[C@@H](C)O)n2)cc1 (mixture of isomers)
(c) CCS(=N)(=O)c1ccc(Nc2ncc(Br)c(N[C@H](C)[C@@H](C)O)n2)cc1 (mixture of isomers)
(d) C[C@@H](O)[C@@H](C)Nc1nc(Nc2ccc(S(=O)(CCO)=NS(=O)(=O)CC[Si](C)(C)C)cc2)ncc1Br (mixture of isomers)
Sort entries by pIC50 from minimum to maximum value. Reply with the labels, ordered as the question asks.
b, d, c, a
(b: 6.52, d: 6.72, c: 7.30, a: 7.70)
